- System: E. coli clinical isolates
- method.notes: MIC on panel of E. coli clinical isolates
- Assay type: cell-based
- run.parameters: strain SEC022
Binary label based on MIC with cut-off 1 µg/mL: below gives 1, not below gives -1.

[
  {
    "compound": "C[C@@H](O)[C@H]1C(=O)N2C(C(=O)O)=C(S[C@@H]3CN[C@H](C(=O)N(C)C)C3)[C@H](C)[C@H]12 [meropenem, reference compound]",
    "class.name": 1
  },
  {
    "compound": "CNC(C)C1CCC(N)C(OC2C(N)CC(N)C(OC3OCC(C)(O)C(NC)C3O)C2O)O1 (stereo not drawn) [gentamicin, reference compound]",
    "class.name": -1
  },
  {
    "compound": "COc1cc(-c2csc(NC(=O)c3ccc([N+](=O)[O-])s3)n2)ccc1Cl [compound 20]",
    "class.name": -1
  },
  {
    "compound": "O=C1CN(/N=C/c2ccc([N+](=O)[O-])o2)C(=O)N1 [nitrofurantoin, reference compound]",
    "class.name": -1
  },
  {
    "compound": "O=C(Nc1nc(-c2ccc(F)cc2F)cs1)c1ccc([N+](=O)[O-])s1 [compound 12]",
    "class.name": -1
  }
]
